System: mouse anti-PC IgM monoclonal antibody (Clone: BH8)
Assay: ELISA for measuring nanofiber epitope reactivity
Assay type: binding
Conditions: nanofibers coated at 0.2 mM; PC-BSA positive control
Where no end group is shown, it is not given here. C11H22NO6P = phosphorylcholine group attached via 2-methacryloyloxyethyl phosphorylcholine
Measured property: binding of anti-PC mAb to nanofibers

AC-QQKFQFQFEQQ-NH2 (Ac-QQKFQFQFEQQ-NH2) [Q11]	not
C5H14NO4P-SGSG-QQKFQFQFEQQ-NH2 (C5H14NO4P-SGSGQQKFQFQFEQQ-NH2) [pa-PC-Q11, phosphoramidate-linked PC-Q11]	not
C11H22NO6P-CSGSG-QQKFQFQFEQQ-NH2 (C(C11H22NO6P)SGSGQQKFQFQFEQQ-NH2) [PC-Q11, phosphodiester PC-Q11]	bound
